Molecular target: UniProtKB P42574
Sequence (P42574 29-175 limits assumed): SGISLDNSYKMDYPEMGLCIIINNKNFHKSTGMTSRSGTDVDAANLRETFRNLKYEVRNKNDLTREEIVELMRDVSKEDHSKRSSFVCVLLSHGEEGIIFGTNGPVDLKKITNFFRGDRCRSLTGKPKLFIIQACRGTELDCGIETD
Sequence (P42574 176-277 limits assumed): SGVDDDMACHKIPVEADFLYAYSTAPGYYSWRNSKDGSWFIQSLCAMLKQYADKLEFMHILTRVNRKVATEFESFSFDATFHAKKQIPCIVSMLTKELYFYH
Assay: SAR Analysis of small molecule inhibitors of Sentrin-specific proteases (SENPs) using a Caspase-3 Selectivity assay. [Related pubchem assays (depositor defined):AID2540, AID2599, AID434973, AID489001]
Assay type: functional
Calls of active or inactive are those of the source.
Outcome codes: 1.0 (active), 0.0 (inactive)

[
  {
    "compound": "CC1CCc2c(sc(NC(=O)c3ccc(Cn4cc(Br)cn4)o3)c2C(N)=O)C1 (centres undefined)",
    "assigned_class": 0.0
  },
  {
    "compound": "CCCCc1ccc2nc(NC(=O)c3ccco3)sc2c1",
    "assigned_class": 1.0
  },
  {
    "compound": "COc1cccc(-c2noc(/C=C/c3ccccc3Cl)n2)c1",
    "assigned_class": 1.0
  },
  {
    "compound": "COc1ccc(N/N=C/c2c[nH]c3ccccc23)cc1",
    "assigned_class": 1.0
  }
]

----------
Recorded below: AC50, system Cytochrome P450 1A2 (Homo sapiens).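 Further: PubChem cytochrome P450 panel assay, CYP1A2 panel member.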

[
  {
    "molecule": "N[C@@H](Cn1cc(I)c(=O)n(Cc2ccc(C(=O)O)cc2)c1=O)C(=O)O",
    "AC50": "31.6 µM (inconclusive)"
  },
  {
    "molecule": "COc1ccc(-c2nc3cnc(N4CCOCC4)nc3n(-c3ccc(OC)cc3)c2=O)cc1",
    "AC50": "10 µM (inconclusive)"
  },
  {
    "molecule": "COc1cccc(/C=N/NC(=O)c2nc(-c3ccccc3)cc(-c3ccccc3)n2)c1",
    "AC50": "3.16 µM (inconclusive)"
  },
  {
    "molecule": "COc1ccc(C(=O)NCS(=O)(=O)c2ccc(C)cc2)cc1",
    "AC50": "15.8 µM (inconclusive)"
  },
  {
    "molecule": "Cc1noc(NC(=O)Nc2ccccc2F)c1C#N",
    "AC50": "0.794 µM (inconclusive)"
  }
]

----------
Recorded below: AC50, system UniProt:P08684.
Sequence (P08684 whole entry): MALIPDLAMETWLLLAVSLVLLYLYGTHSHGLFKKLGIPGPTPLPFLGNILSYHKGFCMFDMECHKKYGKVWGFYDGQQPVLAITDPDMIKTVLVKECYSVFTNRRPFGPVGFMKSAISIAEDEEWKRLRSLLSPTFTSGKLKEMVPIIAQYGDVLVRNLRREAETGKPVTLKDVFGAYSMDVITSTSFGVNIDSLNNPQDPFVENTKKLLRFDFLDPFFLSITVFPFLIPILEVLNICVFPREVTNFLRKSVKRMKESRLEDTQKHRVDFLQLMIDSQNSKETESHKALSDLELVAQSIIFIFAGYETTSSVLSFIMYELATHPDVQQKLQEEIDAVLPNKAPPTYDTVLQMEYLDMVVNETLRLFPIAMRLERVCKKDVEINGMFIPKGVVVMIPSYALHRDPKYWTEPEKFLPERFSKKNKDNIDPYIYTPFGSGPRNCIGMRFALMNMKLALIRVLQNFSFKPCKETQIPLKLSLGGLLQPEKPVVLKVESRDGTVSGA
test_readout: AC50

[
  {
    "molecule": "COCCn1c(=O)c(-c2cc(F)cc(F)c2)nc2cnc(N3CCNCC3)nc21",
    "observed_value": "20 µM (inconclusive)"
  },
  {
    "molecule": "CCc1ccc(-c2cc(C(=O)NCc3ccco3)c3ccccc3n2)s1",
    "observed_value": "15.8 µM (inconclusive)"
  },
  {
    "molecule": "COc1cccc(C2=NOC(C(=O)NCc3ccccc3)C2)c1 (centres undefined)",
    "observed_value": "25.1 µM (inconclusive)"
  },
  {
    "molecule": "CCCC1(C(=O)OC)C=C2C(=C(C(C)C)C(=O)C2C)CN1 (centres undefined)",
    "observed_value": "12.6 µM (inconclusive)"
  },
  {
    "molecule": "CCN(CC)C(=O)CSc1nc(O)cc(=O)n1CC",
    "observed_value": "14.1 µM (inconclusive)"
  },
  {
    "molecule": "CCCCNc1nc(-c2ccccc2)c(C(=O)OCC)cc1C#N",
    "observed_value": "28.2 µM (inconclusive)"
  },
  {
    "molecule": "COc1ccc(-n2c(=O)c(-c3ccc(F)c(F)c3)nc3cncnc32)cc1",
    "observed_value": "12.6 µM (inconclusive)"
  },
  {
    "molecule": "COc1cccc(/C=N/NC(=O)CSc2nnc(C)n2-c2ccccc2)c1O",
    "observed_value": "4.47 µM (inconclusive)"
  },
  {
    "molecule": "c1ccc(NN(Cc2cnccn2)c2ccccc2)cc1",
    "observed_value": "1 µM (inconclusive)"
  },
  {
    "molecule": "Cc1nnc(O)nc1NCc1ccccc1Cl",
    "observed_value": "39.8 µM (inconclusive)"
  },
  {
    "molecule": "CN(C)C(=O)CSC1c2ccccc2C(=O)N1c1ccccc1 (centres undefined)",
    "observed_value": "15.8 µM (inconclusive)"
  },
  {
    "molecule": "COc1ccc(NC(=O)CSc2nnc(CNC(=O)c3ccco3)n2-c2ccccc2OC)cc1",
    "observed_value": "39.8 µM (inconclusive)"
  },
  {
    "molecule": "COC(=O)[C@@H]1CC[C@H](C)[C@@H](c2ccc(C)cc2)N1C(=O)c1ccc(/C=N\\OC[C@@H](O)[C@H]2O[C@H]3OC(C)(C)O[C@H]3[C@@H]2O)cc1",
    "observed_value": "6.31 µM (inconclusive)"
  },
  {
    "molecule": "CCOc1c(OC(C)=O)ccc(/C=C2\\N=C(SCC)SC2=O)c1[N+](=O)[O-]",
    "observed_value": "39.8 µM (inconclusive)"
  },
  {
    "molecule": "Cc1ccccc1NC(=S)NC(=O)c1cc(-c2ccccc2)nc2ccccc12",
    "observed_value": "3.16 µM (inconclusive)"
  },
  {
    "molecule": "COc1ccc(COC(=O)N/N=C2/C[C@@H](O)[C@@H](O)[C@@H]3[C@@H]4C(=O)N([C@@H](C)c5ccccc5)C(=O)[C@H]4CC[C@H]23)cc1",
    "observed_value": "3.98 µM (inconclusive)"
  },
  {
    "molecule": "N#Cc1cccc(-c2nc3cnc(N4CCOCC4)nc3n(C3CC3)c2=O)c1",
    "observed_value": "39.8 µM (inconclusive)"
  },
  {
    "molecule": "CCC(C(=O)N1CCOCC1)n1c(C(=O)OC)cc2occc21 (centres undefined)",
    "observed_value": "14.1 µM (inconclusive)"
  },
  {
    "molecule": "O=C(CSc1ncnc2c1cnn2CCc1ccccc1)Nc1ccc(F)cc1",
    "observed_value": "1.41 µM (inconclusive)"
  },
  {
    "molecule": "CO[C@@H]1COC(=O)[C@H]2CCCN2C(=O)[C@@H](C)COC(=O)[C@H](COCc2ccccc2)NC(=O)C/C=C\\[C@H]1C",
    "observed_value": "3.98 µM (inconclusive)"
  },
  {
    "molecule": "C[C@@H](c1ccccc1)N1C(=O)[C@H]2[C@H]3[C@H](O)[C@H](O)C/C(=N/OCc4ccccc4)[C@@H]3CC[C@@H]2C1=O",
    "observed_value": "5.01 µM (inconclusive)"
  },
  {
    "molecule": "CCCC[C@]1(C2CCCC2)Cc2cc(OCC(=O)O)c(Cl)c(Cl)c2C1=O",
    "observed_value": "10 µM (inconclusive)"
  },
  {
    "molecule": "Cc1ccc(-c2nc3ccccc3s2)cc1NC(=O)c1cc(-n2cnnc2)ccc1Cl",
    "observed_value": "0.891 µM (inconclusive)"
  },
  {
    "molecule": "Cc1cc(C)c(C)c(S(=O)(=O)ON2C(=O)c3ccccc3C2=O)c1C",
    "observed_value": "39.8 µM (inconclusive)"
  },
  {
    "molecule": "CCN(C(S)=Nc1ccccc1F)C1CCCCC1",
    "observed_value": "14.1 µM (inconclusive)"
  },
  {
    "molecule": "O=C(CC(=O)N/N=C\\c1c(Cl)cccc1Cl)NCc1ccccc1",
    "observed_value": "12.6 µM (inconclusive)"
  },
  {
    "molecule": "O=C(CN1CCN(c2ccc(Cl)cc2)CC1)Nc1cccc(F)c1",
    "observed_value": "25.1 µM (inconclusive)"
  },
  {
    "molecule": "CC(C)c1ccccc1[S+]([O-])c1ccccc1C(C)(C)O (centres undefined)",
    "observed_value": "3.98 µM (inconclusive)"
  },
  {
    "molecule": "CCOC(=O)c1ccc(Nc2nc(C(=O)OCC)nc3ccccc23)cc1",
    "observed_value": "35.5 µM (inconclusive)"
  }
]

----------
Molecular target: Nonstructural protein 1 (Influenza A virus)
Sequence (Q194T2 whole entry): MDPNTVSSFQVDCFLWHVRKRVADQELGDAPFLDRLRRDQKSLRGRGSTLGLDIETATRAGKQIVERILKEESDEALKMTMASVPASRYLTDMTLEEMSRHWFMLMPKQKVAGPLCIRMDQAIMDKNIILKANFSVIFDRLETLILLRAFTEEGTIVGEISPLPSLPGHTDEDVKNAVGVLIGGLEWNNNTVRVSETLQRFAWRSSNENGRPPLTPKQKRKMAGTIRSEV
Type: functional, Influenza A virus (A/California/07/2009(H1N1))
The source made the active and inactive calls.

[
  {
    "molecule": "Fc1ccc(-[n+]2nc(Nc3ccccc3)sc2-c2c(Cl)cccc2Cl)cc1",
    "test_target": "Nonstructural protein 1 (Influenza A virus)",
    "IC50": "51.2 µM (active)"
  },
  {
    "molecule": "CN(C)c1ccc(/C=C/c2cc[n+](C)c3ccccc23)cc1",
    "test_target": "Nonstructural protein 1 (Influenza A virus)",
    "IC50": "10.6 µM (active)"
  },
  {
    "molecule": "Cc1ccc(NC(=O)CSc2n[nH]c(-c3ccccn3)n2)cc1",
    "test_target": "Nonstructural protein 1 (Influenza A virus)",
    "IC50": "6.74 µM (active)"
  },
  {
    "molecule": "O=C(O)c1ccccc1-c1c2cc(I)c(=O)c(I)c-2oc2c(I)c(O)c(I)cc12",
    "test_target": "Nonstructural protein 1 (Influenza A virus)",
    "IC50": "19.4 µM (active)"
  },
  {
    "molecule": "CCOC(=O)N1CCN(S(=O)(=O)c2ccc(C(=O)NNc3nc4cc(C)cc(C)c4s3)cc2)CC1",
    "test_target": "Nonstructural protein 1 (Influenza A virus)",
    "IC50": "> 100 µM (active)"
  },
  {
    "molecule": "Cc1ccn2c(Nc3ccc4c(c3)OCO4)c(-c3ccccn3)nc2c1",
    "test_target": "Nonstructural protein 1 (Influenza A virus)",
    "IC50": "11.5 µM (active)"
  },
  {
    "molecule": "CCNc1ccc2noc3c2c1C(=O)c1ccccc1-3",
    "test_target": "Nonstructural protein 1 (Influenza A virus)",
    "IC50": "62 µM (active)"
  },
  {
    "molecule": "O=C(CN1C(=O)COc2ccccc21)Nc1ccc(F)cc1",
    "test_target": "Nonstructural protein 1 (Influenza A virus)",
    "IC50": "3.73 µM (active)"
  },
  {
    "molecule": "Oc1ccccc1C=NNC(=S)Nc1ccc(F)cc1",
    "test_target": "Nonstructural protein 1 (Influenza A virus)",
    "IC50": "12.7 µM (active)"
  }
]
